Listed here: items and their measured protease stability score.
procedureText: protease stability score; higher = more stable; yeast display proteolysis, trypsin and chymotrypsin;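 further: log10 excess protease needed over predicted unfolded state with 0 meaning unfolded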

[
  {
    "primarySequence": "DDEALRVYQEVLEAWKHGDEDRLRQLLDPNVSIDVGDKDVHGREDYVTKMVRKARELSFHFEHVHVDHDGDKATIQMVYVIDQNGEPDRTANNVKVDVQNGKIKEIRVSSDR",
    "protease stability score": 0.622
  },
  {
    "primarySequence": "DEEAVKRVEHFMKNIREGNEQKAREYADKNATIHVGDKTVHGREDLERWVRQVKEEQRMDVRSFHATADNGNVDVKVTAEIEHNGQPRHHHYTAQFNISNGKIQSVTVDDHP",
    "protease stability score": -0.099
  },
  {
    "primarySequence": "DERTLEQLLQDFINNMQTGDHQSLKDLLDENARVNIGDKTLSGRERVTTALKRLMRRVDHIQVDHYEVTNGEMNIDMQLEVNGVRVKVEVIIEVHNGKAKFIEFRVRNEEQWERVEG",
    "protease stability score": 1.84
  },
  {
    "primarySequence": "DESQAKEFVDNFKTNNREELQKQVDKDAKMIVGNKEYHGEEQVQDALRDLNEEVDHLTIKSVELKGNSVTIYFIIVINGTRMTVHVVAVFHNGRVKKEVWTATDEDDKRKIDQVVG",
    "protease stability score": 0.281
  },
  {
    "primarySequence": "EEEHAKHLNEVMERGDWERLAELADKDVKIRVGDKEYRGRELLERWNRKLYKKVDEVHIDSVHVRNGRITVNMEVNVNGDKVRAQFRIRIHNGKIKHINIQATSEENEERWQEMLD",
    "protease stability score": 1.5
  }
]

Reported protease stability score for `DEEKVKRLLKRVAEDYVSGDAETVRKLGKDDAELEVGNTTYHGKEQMYKVVEEFKKYGVRLQVRNAEVRGNKVTMEVDLDMGGDTWKFTVHVEADGGKADKVKIDVSEEVKKRIEHG` : what is it? 0.291

Endpoint output: protease stability score of `DEDTLRTQEEQFKRNNPDDLKKQFDPNAKIRYGDKEITGREDLKKFIDKLRKRIDHYRVRSINIKGEHVRADVVVVVDGRHVRYKVIRHLDNGKVKSLEVKFTSEEQEKKFKEALD` . Value? 0.261
